Measured Binding Score, listed per entry for reference.
Biological target: T1, Soluble CTLA-4-Ig (extracellular domain of human CTLA-4 fused to the Fc portion of human IgG1) (human, UniProt P16410 36-161, FITC-conjugated in the FACS binding assays)
T1 construct: extracellular domain; bought from R&D Systems; also called sCTLA-4-Ig; CTLA-4-Ig Fc; not shown: Fc portion of human IgG1
T1 sequence (P16410 36-161): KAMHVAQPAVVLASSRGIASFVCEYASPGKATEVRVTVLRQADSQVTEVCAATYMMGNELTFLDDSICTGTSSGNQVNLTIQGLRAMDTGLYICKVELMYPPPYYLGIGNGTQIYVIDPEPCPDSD
Assay: competitive FACS on transfected cells, FITC-sCTLA-4-Ig with biotin-sCD28-Ig; grade 0-2 of CTLA-4/CD28 ratio vs WT hB7-1
// keep it numeric: no unit symbol after the value

Look up Binding Score for this binder: Round 2 CTLA4BP-5x3-10e (ligand) VIHVTKEVKEVATLSCGHNVSVEELAQTRIYWQKEKKMVLTMMSGDMNIWPEYKNRTIFDITNNLSIVILALRPSDEGTYECVVLEYEKDAFKREHLAEVTLSVKADFPTPSISDFEIPPSNIRRIICSTSGGFPEPHLFWLENGEELNAINTTVSQDPETELYAVSSKLDFNMTTNHSFMCLIKYGHLRVNQTFNWNTPKQEHFPDNLLPSWAITLISANGIFVICCLTYCFAPRCRERKSNERLRRESVHPV 2

Others:
// Binding Score lookup, key: Round 2 CTLA4 A-F6-9 (ligand) ITPKSVTKRVKETVMLSCDYSTSTEELTSLRIYWQKDSKMVLAILPGKVQVWPEYKNRTITDMNDNPRIVILALRLSDSGTYTCVIQKPDLKGAYKLEHLTSVRLMIRADFPVPTINDLGNPSPNIRRLICSTSGGFPRPHLYWLENGEELNATNTTLSQDPETKLYMISSELDFNMTSNHSFLCLVKYGDLTVSQTFYWQESKPTPSANQHLTWTIIIPVSAFGISVIIAVILTCLTCRNAAIRRQRRENEVEMQSCSQSP 1

Consider next the binder Round 2 CTLA4BP 2x1-h12 (ligand) VIHVTKEVKEVATLSCGLNVSVEELAQTRIHWQKEKKMVLTMMSGDMNIWPEYKNRTIFDITNNLSIVILALRPSDEGTYECVVLKYEKDAFKREHLAEVMLSVKADFPTPSITDFEIPPSNIRRIICSTSGGFPEPHLSWLENGEELNAINTTVSQDPGTELYTVSSKLDFNMTTNHSFMCLIKYGHLRVNQTFNWNTPKQEHFPDNLLPSWAITLISANGIFVICCLTYCFAPRCRERKSNERLRRESVCPV in the same way. 1

Could you do the same for Round 2 CTLA4BP 2x4-h11 (ligand) VIHVTKEVKEVATLSCGHNVSVEELAQTRIYWQKEKKMVLTMMSGDMNIWPEYKNRTIFDITNNLSIVILALRPSDEGTYECVVLEYEKDAFKREHLAEVMLSVKADFPTPSISDFEIPPSNIRRIICSTSGGFPEPHLSWLENGEELNAINTTVSQDPGTELYAVSSKLDFNMTTNHSFMCLIKYGHLRVNQTFNWNTPKQEHFPDNLLPSWAITLISVNGIFVICCLAYCFAPRCRGRRRNERLRRESVRPV , please? 0

Field entry: Round 2 CTLA4BP 5x1-f1 (ligand) VIHVTKEVKEVATLSCGLNVSVEELAQTRIYWQKEKKMVLTMMSGDMNIWPEHKNRTIFDITNNLSIVILALRPSDEGTYECVVLKYEKDAFKREHLAEVTLSVKADFPTPSITDFEIPPSNIRRIICSTSGGFPEPHLFWLENGEELNAINTTASQDPETELYTVSSKLDFNMTANHSFVCLIKYGHLRVNQTFNWNTPKQEHFPDNLLPSWAITLISVNGIFVICCLTYCFAPRCRERRRNETLRRESVRPV 1
